target-system: Gal6P(b1-4)GlcNAc
assay-overview: glycan array binding signal (z-score within array); higher = stronger binding
measurement-setup: glycan notation: IUPAC condensed, linker removed
Many of the other results were omitted from the sample, so the strongest signals are more common in it than they were.

| binder | glycan array binding signal (z-score) |
| --- | --- |
| AT3G09350(27) (Arabidopsis thaliana), Q84J81 (protein) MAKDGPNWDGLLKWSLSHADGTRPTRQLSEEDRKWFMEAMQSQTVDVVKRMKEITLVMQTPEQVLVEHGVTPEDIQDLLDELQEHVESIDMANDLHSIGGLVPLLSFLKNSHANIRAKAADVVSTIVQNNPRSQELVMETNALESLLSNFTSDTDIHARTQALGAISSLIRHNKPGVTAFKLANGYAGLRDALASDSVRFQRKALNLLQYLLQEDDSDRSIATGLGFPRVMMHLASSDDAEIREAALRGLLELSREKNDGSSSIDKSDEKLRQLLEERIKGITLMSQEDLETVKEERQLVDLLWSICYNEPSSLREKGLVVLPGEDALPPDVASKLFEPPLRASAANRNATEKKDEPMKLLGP | -0.424 |
| MPA (Maclura pomifera), P18674 (protein) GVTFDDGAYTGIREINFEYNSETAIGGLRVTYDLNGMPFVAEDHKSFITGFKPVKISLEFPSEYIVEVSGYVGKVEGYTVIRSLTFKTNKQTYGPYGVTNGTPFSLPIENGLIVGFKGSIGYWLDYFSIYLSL | -0.561 |
| Threefoil (Haloarcula marismortui) (protein) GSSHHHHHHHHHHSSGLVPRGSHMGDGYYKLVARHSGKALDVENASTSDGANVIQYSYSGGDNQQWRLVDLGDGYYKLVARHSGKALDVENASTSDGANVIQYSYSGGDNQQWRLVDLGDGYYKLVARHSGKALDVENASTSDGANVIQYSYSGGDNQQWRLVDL | -0.211 |
